Overview of recorded pKd for various binders
# experimental_system: T1, hCD137-mFc-Avi (human, UniProt Q07011 24-186)
# T1 construct: dimer; also called human CD137-mFc-Avi; human CD137-mFc
# T1 sequence (Q07011 24-186): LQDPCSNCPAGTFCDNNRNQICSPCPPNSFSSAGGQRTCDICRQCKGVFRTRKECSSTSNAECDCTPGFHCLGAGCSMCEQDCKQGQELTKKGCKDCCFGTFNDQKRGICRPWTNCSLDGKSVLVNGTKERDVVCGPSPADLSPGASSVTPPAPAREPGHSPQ
# protocol_notes: SPR (Biacore 3000), mAb^2 captured by anti-human Fc, dimeric CD137-mFc as analyte, 1:1 model with mass transfer
# reply with the number alone; pKd is -log10 of concentration in mol/L

[ask] What value of pKd has been reported for the following binder? FS20-22-49AA/FS30-5-37 (bispecific antibody, human IgG1, kappa, L234A L235A, V domains shown, M100D to I and M100H to L against FS30-5; also called FS30-5-37 in mAb^2 format) VH: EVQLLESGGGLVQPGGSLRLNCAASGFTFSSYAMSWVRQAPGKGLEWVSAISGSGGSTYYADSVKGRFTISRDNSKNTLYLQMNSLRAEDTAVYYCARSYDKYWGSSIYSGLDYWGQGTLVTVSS VL: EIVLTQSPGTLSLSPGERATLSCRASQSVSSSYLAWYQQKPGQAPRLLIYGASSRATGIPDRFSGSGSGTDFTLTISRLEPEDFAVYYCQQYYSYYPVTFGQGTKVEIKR
[reply] 8.46

[ask] What value of pKd has been reported for the following binder? FS20-22-49AA/FS30-10-3 (bispecific antibody, human IgG1, kappa, L234A L235A, V domains shown, M97 (Kabat) to N against FS30-10; also called FS30-10-3 in mAb^2 format) VH: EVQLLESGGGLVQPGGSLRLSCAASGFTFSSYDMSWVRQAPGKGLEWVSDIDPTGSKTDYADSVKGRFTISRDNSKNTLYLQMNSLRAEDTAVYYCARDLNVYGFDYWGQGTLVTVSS VL: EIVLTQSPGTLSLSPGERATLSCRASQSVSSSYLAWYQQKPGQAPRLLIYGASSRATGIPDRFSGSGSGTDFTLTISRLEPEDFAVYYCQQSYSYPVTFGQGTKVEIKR
[reply] 9.72

***
[ask] What value of pKd has been reported for the following binder? FS20-22-49AA/FS30-35-14 (bispecific antibody, human IgG1, kappa, L234A L235A, V domains shown, M100F (Kabat) to A against FS30-35; also called FS30-35-14 in mAb^2 format) VH: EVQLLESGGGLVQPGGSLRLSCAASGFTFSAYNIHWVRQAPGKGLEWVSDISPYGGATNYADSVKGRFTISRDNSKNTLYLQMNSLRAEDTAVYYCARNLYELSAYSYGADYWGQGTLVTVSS VL: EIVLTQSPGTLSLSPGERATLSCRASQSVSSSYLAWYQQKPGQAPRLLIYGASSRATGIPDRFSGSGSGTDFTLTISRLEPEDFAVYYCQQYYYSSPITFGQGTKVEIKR
[reply] 9.22

[ask] What value of pKd has been reported for the following binder? FS20-22-49AA/FS30-10-16 (bispecific antibody, human IgG1, kappa, L234A L235A, V domains shown, M97 (Kabat) to L against FS30-10; also called FS30-10-16 in mAb^2 format) VH: EVQLLESGGGLVQPGGSLRLSCAASGFTFSSYDMSWVRQAPGKGLEWVSDIDPTGSKTDYADSVKGRFTISRDNSKNTLYLQMNSLRAEDTAVYYCARDLLVYGFDYWGQGTLVTVSS VL: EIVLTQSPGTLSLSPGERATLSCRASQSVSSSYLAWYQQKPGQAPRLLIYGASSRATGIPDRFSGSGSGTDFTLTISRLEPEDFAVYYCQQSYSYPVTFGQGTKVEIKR
[reply] 9.77

FYI, the data here is from patent US12534534.
